The reader will find reported CC50 at 72 h values listed item by item below.
Assay: Cytotoxicity against human hepatoma cells after 3 days by MTS assay
Assay type: cell-based
parameter: CC50 at 72 h (µM)

- compound.string: "Cc1nc(N[C@H](C)c2ccc(-c3cnn(C)c3)cc2)nc(N[C@@H]2C[C@H](CO)[C@@H](O)[C@H]2O)c1-c1nc2cnccc2s1"
  unit.of.measure: "µM"
  measurement.qualifier: "="
  observed.measurement: 25
- compound.string: "Cc1nc(N[C@H](C)c2ccc(OC(F)(F)F)cc2)nc(N[C@@H]2C[C@H](CO)[C@@H](O)[C@H]2O)c1-c1nc2c(C3CCC3)nccc2s1"
  unit.of.measure: "µM"
  measurement.qualifier: "="
  observed.measurement: 5
- compound.string: "Cc1nc(N[C@H](C)c2ccc(OC(F)(F)F)cc2)nc(N[C@@H]2C[C@H](CO)[C@@H](O)[C@H]2O)c1-c1nc2cnccc2s1"
  unit.of.measure: "µM"
  measurement.qualifier: ">"
  observed.measurement: 25
- compound.string: "Cc1nc(Nc2ccccc2)nc(N[C@@H]2C[C@H](CO)[C@@H](O)[C@H]2O)c1-c1nc2cnccc2s1"
  unit.of.measure: "µM"
  measurement.qualifier: ">"
  observed.measurement: 25
- compound.string: "Cc1nc(N[C@H](C)c2ccc(OC(F)(F)F)cc2)nc(N[C@@H]2C[C@H](CO)[C@@H](O)[C@H]2O)c1-c1nc2c(C3CC3)nccc2s1.Cl"
  unit.of.measure: "µM"
  measurement.qualifier: ">"
  observed.measurement: 25
- compound.string: "Cc1nc(N[C@H](C)c2ccc(OC(F)(F)F)cc2)nc(N[C@@H]2C[C@H](CO)[C@@H](O)[C@H]2O)c1-c1nc2c(C(C)C)nccc2s1"
  unit.of.measure: "µM"
  measurement.qualifier: "="
  observed.measurement: 10
- compound.string: "COc1cc(CCNc2nc(C)c(-c3nc4cnccc4s3)c(N[C@@H]3C[C@H](CO)[C@@H](O)[C@H]3O)n2)cc(OC)c1"
  unit.of.measure: "µM"
  measurement.qualifier: "="
  observed.measurement: 19

---

Known AUC of a selection of compounds
Experiment: AUC in dog at 3 mg/kg, po
Format: ADME, organism-based, Canis lupus familiaris
Design: dose 3 mg/kg, route oral
Conditions: plasma

- compound.string: "Cc1nc(N[C@H](C)c2ccc(OC(F)(F)F)cc2)nc(N[C@@H]2C[C@H](CO)[C@@H](O)[C@H]2O)c1-c1nc2c(C3CC3)nccc2s1.Cl"
  AUC: "5.1 µM·h"
- compound.string: "Cc1nc(N[C@H](C)c2ccc(OC(F)(F)F)cc2)nc(N[C@@H]2C[C@H](CO)[C@@H](O)[C@H]2O)c1-c1nc2c(C)nccc2s1.Cl"
  AUC: "2.9 µM·h"

---

Property: half-life; scope: individual compounds
Assay: Half life in rat at 10 mg/kg, po
Assay type: ADME, organism-based
Design: dose 10 mg/kg, route oral
Details: in vivo
parameter: half-life (h)

- compound.string: "Cc1nc(N[C@H](C)c2ccc(OC(F)(F)F)cc2)nc(N[C@@H]2C[C@H](CO)[C@@H](O)[C@H]2O)c1-c1nc2c(C)nccc2s1.Cl"
  parameter: "half-life"
  observed.measurement: 2.5
- compound.string: "Cc1nc(N[C@H](C)c2ccc(OC(F)(F)F)cc2)nc(N[C@@H]2C[C@H](CO)[C@@H](O)[C@H]2O)c1-c1nc2c(C3CC3)nccc2s1.Cl"
  parameter: "half-life"
  observed.measurement: 5
